Value source: patent US6376497B1

System: Candida albicans A. 10231
Experiment: In vitro antifungal activity, microbroth dilution MIC
Type: cell-based
Details: C. albicans A. 10231, RPMI-1640, 35° C., 4 to 48 hours
Entries and their measured Minimal inhibitory concentration (MIC) follow.
Report as a plain number; the unit µg/mL is understood.

Before answering, review these 3 worked examples.
COMPOUND	OBSERVED
CCc1ccc(C=C(F)OCC2COC(Cn3ccnc3)(c3ccc(F)cc3F)O2)cc1 (mixture of isomers) [Ex. 39]	12.5
CCc1ccc(C=C(F)OCC2COC(Cn3ccnc3)(c3ccc(Cl)cc3Cl)O2)cc1 (stereo not shown) [Ex. 4]	12.5
FC(OCC1COC(Cn2ccnc2)(c2ccc(F)cc2F)O1)=C(c1cccc(C(F)(F)F)c1)C(F)(F)F (mixture of isomers) [Ex. 58]	25.0

Kindly consider the entry below.
// returns reported Minimal inhibitory concentration (MIC) for input FC(=Cc1ccc(Cl)cc1)OCC1COC(Cn2ccnc2)(c2ccc(Cl)cc2Cl)O1 (stereo not shown) [Ex. 14] 6.25

* * *

Entries and their Minimal inhibitory concentration(MIC), C. albicans IFO. 1385
System: Candida albicans IFO. 1385
Test: In vitro antifungal activity, microbroth dilution MIC
Assay type: cell-based
Conditions: RPMI-1640, 35° C., 4 to 48 hours, no growth observed
Numbers only here, please. The scale is µg/mL.

Consider the following illustrative entries.
COMPOUND	OBSERVED
FC(=C(c1cc(Cl)cc(Cl)c1)C(F)(F)F)N1CCN(c2ccc(OCC3COC(Cn4ccnc4)(c4ccc(F)cc4F)O3)cc2)CC1 (mixture of isomers)	0.39
FC(=Cc1ccc(F)cc1)Oc1ccc(OCC2COC(Cn3ccnc3)(c3ccc(Cl)cc3Cl)O2)cc1 (mixture of isomers)	3.13
Cc1ccc(C(=C(F)OCC2COC(Cn3cncn3)(c3ccc(Cl)cc3Cl)O2)C(F)(F)F)cc1 (mixture of isomers)	12.5
FC(=C(c1ccccc1)C(F)(F)F)N1CCN(c2ccc(OCC3COC(Cn4ccnc4)(c4ccc(Cl)cc4Cl)O3)cc2)CC1 (mixture of isomers)	1.56
Cc1cccc(C(=C(F)Oc2ccc(OCC3COC(Cn4ccnc4)(c4ccc(F)cc4F)O3)cc2)C(F)(F)F)c1 (mixture of isomers)	3.13
CC(C)(C)c1ccc(C(=C(F)Oc2ccc(OCC3COC(Cn4ccnc4)(c4ccc(F)cc4F)O3)cc2)C(F)(F)F)cc1 (mixture of isomers)	3.13

Field: Minimal inhibitory concentration(MIC), C. albicans IFO. 1385 (Candida albicans IFO. 1385). Entry: Cc1ccc(C=C(F)OCC2COC(Cn3cncn3)(c3ccc(Cl)cc3Cl)O2)cc1 (mixture of isomers) 6.25

* * *

Tested on: Candida krusei K. 11655
Test: In vitro antifungal activity, microbroth dilution MIC
Type: cell-based
Conditions: RPMI-1640, 35° C., 4 to 48 hours, no growth observed
OBSERVATION TYPE: Minimal inhibitory concentration(MIC), C. krusei K. 11655

The examples below pair each entry with its known result.
MOLECULE	OBSERVED
Cc1cc(C)cc(C=C(F)OCC2COC(Cn3cncn3)(c3ccc(Cl)cc3Cl)O2)c1 (mixture of isomers) [Ex. 73]	100 µg/mL
FC(=Cc1ccc2c(c1)OCO2)OCC1COC(Cn2cncn2)(c2ccc(Cl)cc2Cl)O1 (mixture of isomers) [Ex. 75]	100 µg/mL
FC(Oc1ccc(OCC2COC(Cn3ccnc3)(c3ccc(F)cc3F)O2)cc1)=C(c1cccc(C(F)(F)F)c1)C(F)(F)F (mixture of isomers) [Ex. 111]	>100 µg/mL
COc1ccc(C(=C(F)N2CCN(c3ccc(OCC4COC(Cn5ccnc5)(c5ccc(Cl)cc5Cl)O4)cc3)CC2)C(F)(F)F)cc1 (mixture of isomers) [Ex. 131]	1.56 µg/mL
FC(=C(c1ccccc1)C(F)(F)F)N1CCN(c2ccc(OCC3COC(Cn4ccnc4)(c4ccc(Cl)cc4Cl)O3)cc2)CC1 (mixture of isomers) [Ex. 124]	>100 µg/mL
FC(Oc1ccc(OCC2COC(Cn3ccnc3)(c3ccc(F)cc3F)O2)cc1)=C(c1cccc(Cl)c1)C(F)(F)F (mixture of isomers) [Ex. 114]	>100 µg/mL
CC(C)(C)c1ccc(C(=C(F)N2CCN(c3ccc(OCC4COC(Cn5ccnc5)(c5ccc(Cl)cc5Cl)O4)cc3)CC2)C(F)(F)F)cc1 (mixture of isomers) [Ex. 128]	3.13 µg/mL
FC(Oc1ccc(OCC2COC(Cn3ccnc3)(c3ccc(Cl)cc3Cl)O2)cc1)=C(c1cc(Cl)cc(Cl)c1)C(F)(F)F (mixture of isomers) [Ex. 104]	>100 µg/mL
FC(Oc1ccc(OCC2COC(Cn3ccnc3)(c3ccc(F)cc3F)O2)cc1)=C(c1ccccc1)C(F)(F)F (mixture of isomers) [Ex. 106]	3.13 µg/mL
Cc1ccc(C(=C(F)Oc2ccc(OCC3COC(Cn4cncn4)(c4ccc(Cl)cc4Cl)O3)cc2)C(F)(F)F)cc1 (mixture of isomers) [Ex. 120]	>100 µg/mL

What measured Minimal inhibitory concentration(MIC), C. krusei K. 11655 is associated with FC(Oc1ccc(OCC2COC(Cn3ccnc3)(c3ccc(Cl)cc3Cl)O2)cc1)=C(c1cccc(C(F)(F)F)c1)C(F)(F)F (mixture of isomers) [Ex. 96] on Candida krusei K. 11655? >100 µg/mL

Next record, please: FC(=C(c1cc(Cl)cc(Cl)c1)C(F)(F)F)N1CCN(c2ccc(OCC3COC(Cn4ccnc4)(c4ccc(Cl)cc4Cl)O3)cc2)CC1 (mixture of isomers) [Ex. 136] >100 µg/mL

How about FC(=C(c1ccc(C(F)(F)F)cc1)C(F)(F)F)N1CCN(c2ccc(OCC3COC(Cn4ccnc4)(c4ccc(Cl)cc4Cl)O3)cc2)CC1 (mixture of isomers) [Ex. 130] ? 1.56 µg/mL

Same question for COc1ccc(C(=C(F)Oc2ccc(OCC3COC(Cn4ccnc4)(c4ccc(Cl)cc4Cl)O3)cc2)C(F)(F)F)cc1 (mixture of isomers) [Ex. 98] please. >100 µg/mL

Now the same for FC(=C(c1ccc(F)cc1)C(F)(F)F)N1CCN(c2ccc(OCC3COC(Cn4ccnc4)(c4ccc(F)cc4F)O3)cc2)CC1 (mixture of isomers) [Ex. 148] 0.39 µg/mL

Further, for FC(OCC1COC(Cn2cncn2)(c2ccc(Cl)cc2Cl)O1)=C(c1ccccc1)C(F)(F)F (mixture of isomers) [Ex. 79] ? >100 µg/mL

Can you check FC(=C(c1ccccc1)C(F)(F)F)N1CCN(c2ccc(OCC3COC(Cn4ccnc4)(c4ccc(F)cc4F)O3)cc2)CC1 (mixture of isomers) [Ex. 138] next? 1.56 µg/mL

// next record Cc1ccc(C(=C(F)N2CCN(c3ccc(OCC4COC(Cn5ccnc5)(c5ccc(Cl)cc5Cl)O4)cc3)CC2)C(F)(F)F)cc1C (mixture of isomers) [Ex. 129] 3.13 µg/mL

Same thing, different molecule: Cc1cccc(C(=C(F)N2CCN(c3ccc(OCC4COC(Cn5ccnc5)(c5ccc(F)cc5F)O4)cc3)CC2)C(F)(F)F)c1 (mixture of isomers) [Ex. 139] 1.56 µg/mL

Now give it for COc1cccc(C=C(F)Oc2ccc(OCC3COC(Cn4ccnc4)(c4ccc(Cl)cc4Cl)O3)cc2)c1 (mixture of isomers) [Ex. 90] too. >100 µg/mL

How about this molecule: FC(=C(c1ccc2c(c1)OCO2)C(F)(F)F)N1CCN(c2ccc(OCC3COC(Cn4ccnc4)(c4ccc(Cl)cc4Cl)O3)cc2)CC1 (mixture of isomers) [Ex. 132] 1.56 µg/mL

Okay, and FC(=C(c1ccc(Oc2ccccc2)cc1)C(F)(F)F)N1CCN(c2ccc(OCC3COC(Cn4ccnc4)(c4ccc(F)cc4F)O3)cc2)CC1 (mixture of isomers) [Ex. 146] ? 0.78 µg/mL

Same thing, different molecule: FC(Oc1ccc(OCC2COC(Cn3ccnc3)(c3ccc(Cl)cc3Cl)O2)cc1)=C(c1cccc(Cl)c1)C(F)(F)F (mixture of isomers) [Ex. 101] >100 µg/mL

* * *

Catalogue of compounds with associated Minimal inhibitory concentration(MIC), A furnigatus B. 19119
Tested on: Aspergillus furnigatus B. 19119
Assay: In vitro antifungal activity, microbroth dilution MIC
Assay type: cell-based
Conditions: RPMI-1640, 35° C., no growth observed
Give just the numeric value; µg/mL need not be written.

Sample records with Minimal inhibitory concentration(MIC), A furnigatus B. 19119:
COMPOUND	TEST SYSTEM	OBSERVED
FC(=C(c1ccc(C(F)(F)F)cc1)C(F)(F)F)N1CCN(c2ccc(OCC3COC(Cn4ccnc4)(c4ccc(F)cc4F)O3)cc2)CC1 (mixture of isomers)	Aspergillus furnigatus B. 19119	50.0
FC(=C(c1cc(Cl)cc(Cl)c1)C(F)(F)F)N1CCN(c2ccc(OCC3COC(Cn4ccnc4)(c4ccc(F)cc4F)O3)cc2)CC1 (mixture of isomers)	Aspergillus furnigatus B. 19119	12.5
FC(=C(c1ccc2c(c1)OCO2)C(F)(F)F)N1CCN(c2ccc(OCC3COC(Cn4ccnc4)(c4ccc(F)cc4F)O3)cc2)CC1 (mixture of isomers)	Aspergillus furnigatus B. 19119	100

Recorded Minimal inhibitory concentration(MIC), A furnigatus B. 19119 of COc1cccc(C(=C(F)N2CCN(c3ccc(OCC4COC(Cn5ccnc5)(c5ccc(F)cc5F)O4)cc3)CC2)C(F)(F)F)c1 (mixture of isomers) , please. 100

Lookup FC(=C(c1ccc(F)cc1)C(F)(F)F)N1CCN(c2ccc(OCC3COC(Cn4ccnc4)(c4ccc(F)cc4F)O3)cc2)CC1 (mixture of isomers) 6.25

What do you have for FC(=C(c1ccc(Cl)cc1)C(F)(F)F)N1CCN(c2ccc(OCC3COC(Cn4ccnc4)(c4ccc(F)cc4F)O3)cc2)CC1 (mixture of isomers) ? 6.25
